molecular target: CLK1 (Homo sapiens, UniProt P49759)
Sequence (P49759 whole entry): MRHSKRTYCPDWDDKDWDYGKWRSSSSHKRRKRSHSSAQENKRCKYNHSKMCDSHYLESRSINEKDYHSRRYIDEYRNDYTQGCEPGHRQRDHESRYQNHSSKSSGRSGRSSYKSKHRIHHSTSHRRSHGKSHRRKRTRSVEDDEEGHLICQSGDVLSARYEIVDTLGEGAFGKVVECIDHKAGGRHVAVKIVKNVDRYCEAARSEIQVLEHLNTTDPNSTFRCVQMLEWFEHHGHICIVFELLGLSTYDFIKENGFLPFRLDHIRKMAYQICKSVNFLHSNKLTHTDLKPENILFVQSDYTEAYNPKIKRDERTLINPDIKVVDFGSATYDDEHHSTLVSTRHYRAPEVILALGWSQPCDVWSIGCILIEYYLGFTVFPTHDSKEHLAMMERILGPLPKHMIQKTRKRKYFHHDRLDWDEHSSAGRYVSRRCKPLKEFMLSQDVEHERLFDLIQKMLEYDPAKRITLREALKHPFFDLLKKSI
ENDPOINT LABEL: IC50 (nM)

Recorded IC50, per entry:
MOLECULE	READOUT UNIT	IC50
N/C(=N\CCN1CCOCC1)c1nc2ccc3ncn(C4CC4)c(=O)c3c2s1 [Compound 17c]	nM	2300
N=C(NCc1ccccc1)c1nc2ccc3ncn(C4CC4)c(=O)c3c2s1 [Compound 17a]	nM	1000
N/C(=N\CCN1CCCCC1)c1nc2ccc3ncn(C4CC4)c(=O)c3c2s1 [Compound 17d]	nM	2100

1. CN(C)CC/N=C(\N)c1nc2ccc3ncn(C4CC4)c(=O)c3c2s1 [Compound 17b]
2. O=c1c2c(ccc3nc(Nc4cccnc4)sc32)ncn1C1CC1
3. O=c1c2c(ccc3nc(N4CCCCC4)sc32)ncn1C1CC1 [Compound 14e]
4. O=c1c2c(ccc3nc(NCc4ccccc4)sc32)ncn1C1CC1 [Compound 14a]
hey, can you rank those molecules up there by IC50? biggest number first please Arrange the labels as the request states and list them.
3, 4, 2, 1

* * *

Read-out record for UniProt:Q63470: IC50
ENDPOINT LABEL: IC50 (µM)

COMPOUND	READOUT UNIT	IC50
N/C(=N\CCN1CCOCC1)c1nc2ccc3ncn(C4CC4)c(=O)c3c2s1 [Compound 17c]	µM	3.2
O=c1c2c(ccc3nc(NCCN4CCOCC4)sc32)ncn1C1CC1 [Compound 14d]	µM	8.2
CN(C)CC/N=C(\N)c1nc2ccc3ncn(C4CC4)c(=O)c3c2s1 [Compound 17b]	µM	4.4
N=C(c1nc2ccc3ncn(C4CC4)c(=O)c3c2s1)N1CCOCC1 [Compound 17e]	µM	0.14
N=C(c1nc2ccc3ncn(C4CC4)c(=O)c3c2s1)N1CCCCC1 [Compound 17f]	µM	0.82
N=C(NCc1ccccc1)c1nc2ccc3ncn(C4CC4)c(=O)c3c2s1 [Compound 17a]	µM	0.67

I. N/C(=N\CCN1CCCCC1)c1nc2ccc3ncn(C4CC4)c(=O)c3c2s1 [Compound 17d]
II. O=c1c2cc(Nc3nc4ccccc4s3)ccc2ncn1C1CC1 [Compound 10a]
# min-compare on IC50 between I and II Answer with the label corresponding to your selection.
I
(I: 2.9 µM, II: 4.8 µM)

* * *

target: CK1δ/ε; test: CK1δ/ε in vitro kinase assay (CK1-specific peptide substrate); settings: 15 μM ATP, 30 min at 30 °C, triplicate; >10 = less than 50% inhibition at 10 µM
# IC50 listing for each entry below

Recorded IC50, per entry:
COMPOUND	RESULT
COc1ccc2c(c1)[nH]c1c(C)nccc12 [Harmine, reference compound]	1.5 µM
O=c1c2c(ccc3nc(NCc4ccccc4)sc32)ncn1C1CC1 [Compound 14a]	> 10 µM

// switching to the query compound
Record CN(C)CCNc1nc2ccc3ncn(C4CC4)c(=O)c3c2s1 [Compound 14b] : what is its IC50 with CK1δ/ε?
> 10 µM

* * *

# pIC50 listing for each entry below
target: CK1δ/ε; test: CK1δ/ε in vitro kinase assay (CK1-specific peptide substrate); conditions: 15 μM ATP, 30 min at 30 °C, triplicate; >10 = less than 50% inhibition at 10 µM
pIC50: −log10 of the molar value.

Recorded pIC50, per entry:
MOLECULE	pIC50
O=c1c2c(ccc3nc(Nc4ccccc4)sc32)ncn1C1CC1	< 5.00
O=c1c2cc(Nc3nc4ccccc4s3)ccc2ncn1C1CC1 [Compound 10a]	< 5.00
N=C(c1nc2ccc3ncn(C4CC4)c(=O)c3c2s1)N1CCOCC1 [Compound 17e]	5.72
CN(C)c1ccc(Nc2nc3ccc4ncn(C5CC5)c(=O)c4c3s2)cc1	< 5.00

// switching to the query molecule
What does the data say about its pIC50? Entry: N/C(=N\CCN1CCOCC1)c1nc2ccc3ncn(C4CC4)c(=O)c3c2s1 [Compound 17c]
< 5.00
